Molecular target: T1, S1 subunit of the SARS-CoV-2 spike protein (Sino Biological 40591-V08H), His tag (SARS-CoV-2, UniProt P0DTC2 16-685)
T1 construct: domain: S1 subunit
Please assign 0 whenever HTRF deltaF is at or above 600 deltaF, and 1 whenever it is below.

binder	classification
IMPI-055 (antibody, V domains shown) VH: QVQLVQSGAEVKKPGASVKVSCKASGYTFTSYDINWVRQATGQGLEWMGWMNPNSGNTGYAQKFQGRVTMTRDTSINTAYMELSSLRSEDTAVYFCARGGRYCSDVTCYSGEPFDYWGQGTLVTVSS VL: EIMLTQSPDFQSVTPKEKVTITCRASQSIGSSLHWYQQKPDQSPKLLIKFASQSISGVPSRFSGSGSGTDFTLTINSLEAEDAAAYYCHQSSSLPHTFGPGTKVEIK	0
IMPI-024 (antibody, V domains shown) VH: EVQLVQSGAEVKKPGESLKISCKGSGYSFTSYWIGWVRQMPGKGLEWMGIIYPGDSDTRYSPSFQGQVTISADKSISTAYLQWSSLKASDTAMYYCVRSYNWNYFDYWGQGTLVTVSS VL: AIQLTQSPSSLSASVGDRVTITCRASQGISSGLAWYQQKAGKAPKLLIYDVSSLESGVPSRFSGSGSGTDFTLTISSLQPEDFATYYCQQFLSYPWTFGQGTKVEIK	0
IMPI-005 (antibody, V domains shown) VH: EVQLVESGGGLIQPGGSLRLSCAASGFTVSSNYMNWVRQAPGKGLEWVSVIYSGGSTYYADSVKGRFTISRDNSKNTLFLQMNSLRAEDSAVYYCARDLGPYGVDVWGQGTTVTVSS VL: DIQLTQSPSFLSASVGDRVTITCWASQGISSYLAWYQQKPGKAPKLLIYAASTLQSGVPSRFSGSGSGTEFTLTISSLQPEDFATYYCQELNSYPLTFGQGTRLEIK	0

[Q] Does the reported HTRF deltaF of IMPI-063 (antibody, V domains shown) VH: EVQLVESGGGVVRPGGSLRLSCAASGFTFDDYGMSWVRQAPGKGLEWVSGIYWNGGSTGYADSVKGRFTISRDNAKNSLYLQMNSLRAEDMALYYCARGVGATDYWGQGTLVTVSS VL: EIVLTQSPGTLSLSSGERATLACRASESVRGSFLAWYQQKPGQAPRLLIYGASRRATGIPDRFSGSGSGTDFTLTISRLEPEDFAVYYCQQYGNSPMCSFGQGTKLEIK stay below 600 deltaF?
[A] 1

[Q] Identify whether the binder IMPI-032 (antibody, V domains shown) VH: QVQLQESGPGLVKPSGTLSLTCAVSGGSISSNKWWSWVRQPPGKGLEWIGEIDHSGSTMYNPSLKSRVTISVDKSKNQFSLKLNSVTAADTAVYYCTGEGYNWNYWGQGTRVTVSS VL: DVVMTQSPLSLPVTLGQTASISCRSSQSLLYTDGNTYLSWFQQRPGQSPRRLIYKVSKWESGVPDRFSGSGSGTDFTLKISRVEAEDVGIYYCMQGTHWPLTFGGGTKVEIK records HTRF deltaF below 600 deltaF.
[A] 1

[Q] A record lists IMPI-060 (antibody, V domains shown) VH: EVQLVESGGGLIQPGGSLRLSCAASGVTVSSNYMSWVRQAPGKGLEWVSVIYSGGSTFYADSVKGRFTISRDNSKNTLYLQMNSLRAEDTAVYYCARDLSYYGMDVWGQGTTVTVSS VL: DIQLTQSPSFLSASVGDRVTITCWASQGISSYLAWYQQKPGKAPKLLIYAASTLQSGVPSKFSGSGSGTEFTLTISSLQPEDFATYYCQQLNSYPSSFGQGTKLEIK . Is its HTRF deltaF below 600 deltaF?
[A] 1

[Q] Confirm or reject: HTRF deltaF of IMPI-033 (antibody, V domains shown) VH: QVQLQESGPGLVKPSQTLSLTCTVSGGSISSYGYYWSWIRQHPGKGLEWIGYIYYSGSTYYNPSLKSRVTMSVDTSKNQLSLRLNSVSAADTAVYYCARDFGGNSNYFDYWGQGTLVTVSS VL: AIQLTQSPSSLSASVGDRVTITCRASQGISSALAWYQQKPGKAPNLLIYDASSLESGVPSRFSGSGSGTDFTLTISSLQPEDFATYYCQQFNSSPLTFGGGTKVEIK lies strictly below 600 deltaF
[A] 0

[Q] Lab note: confirm whether the reported HTRF deltaF for this binder is below 600 deltaF, equality not counting. binder: IMPI-021 (antibody, V domains shown) VH: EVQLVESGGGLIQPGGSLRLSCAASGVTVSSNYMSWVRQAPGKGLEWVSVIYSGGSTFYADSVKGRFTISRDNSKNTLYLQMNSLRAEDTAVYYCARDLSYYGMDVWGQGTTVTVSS VL: DIQLTQSPSFLSASVGDRVTITCWASQGISSYLAWYQQKPGKAPKLLIYAASTLQSGVPSKFSGSGSGTEFTLTISSLQPEDFATYYCQQLNSYPCSFGQGTKLEIK
[A] 0

[Q] I'd appreciate it if you could check whether IMPI-059 (antibody, V domains shown) VH: EVQLVESGGGLIQPGGSLRLSCAASGFTVSSIYMSWVRQAPGKGLEWVSIIYSRGSTDYADSVKGRFTISRDISKNTLYLQMNSLRAEDTAVYYCARDGTMVRGVHAFDIWGQGTMVTVSS VL: DIQMTQSPPSLSASIGDRVTITCQASQDISNYLNWYQQKPGKAPKLLIYDASNLETGVPSRFSGSGSGTDFTLTISNLQPEDIVTYYCQQYDNLPSSFGQGTKLEIK has HTRF deltaF smaller than 600 deltaF.
[A] 1

[Q] Strictly below 600 deltaF: is that where HTRF deltaF of IMPI-027 (antibody, V domains shown) VH: QVQLQESGPGLVKPSQTLSLTCTVSGGSISSYGYYWNWIRQHPGKGLEWIGYIYYSGSTYYNPSLKSRVTISVDTSKNQLSLRLNSVSAADTAVYYCARDFGGNSNYFDYWGQGTLVTVSS VL: AIQLTQSPSSLSASVGDRVTITCRTSQGISSALAWYQQKPGKAPKLLIYDASSLESGVPSRFSGSGSGTDFTLTISSLQPEDFATYYCQQFNSYPLTFGGGTKVEIK sits?
[A] 0
